# tgt: CYP3A4 (Homo sapiens, UniProt P08684)
# Sequence (P08684 whole entry): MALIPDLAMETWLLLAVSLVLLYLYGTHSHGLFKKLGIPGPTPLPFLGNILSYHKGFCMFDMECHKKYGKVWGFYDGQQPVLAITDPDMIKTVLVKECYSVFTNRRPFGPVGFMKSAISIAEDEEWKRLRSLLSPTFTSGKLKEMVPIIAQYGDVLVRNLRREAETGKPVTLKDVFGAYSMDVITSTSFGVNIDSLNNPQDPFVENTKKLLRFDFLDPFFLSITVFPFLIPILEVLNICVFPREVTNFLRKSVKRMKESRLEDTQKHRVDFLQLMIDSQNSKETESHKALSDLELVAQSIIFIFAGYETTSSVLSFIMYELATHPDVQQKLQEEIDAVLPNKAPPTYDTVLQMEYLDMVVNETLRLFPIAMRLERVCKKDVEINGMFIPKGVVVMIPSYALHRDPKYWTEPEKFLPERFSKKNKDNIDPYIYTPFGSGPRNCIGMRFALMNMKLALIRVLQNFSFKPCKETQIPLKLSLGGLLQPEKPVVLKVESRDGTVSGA
# experiment: Inhibition of CYP3A4 in human liver microsomes assessed as residual activity at 5 uM after 30 mins
# Format: ADME, Microsome
# run parameters: read-out: Activity
readout name: activity at 0.5 h, 5 µM (%)

                            compound_smiles  observed_result
0  NCCN1CCN(c2ccc(Nc3ncc4ccn(Cc5cc(F)cc(F)c5)c4n3)cc2)CC1              105
1  O=C(O)CN1CCN(c2ccc(Nc3ncc4ccn(Cc5cc(F)cc(F)c5)c4n3)cc2)CC1               98
2  NC(=O)CN1CCN(c2ccc(Nc3ncc4ccn(Cc5cc(F)cc(F)c5)c4n3)cc2)CC1               85
3  Fc1cc(F)cc(Cn2ccc3cnc(Nc4ccc(N5CCNCC5)cc4)nc32)c1               95
4  OCCN1CCN(c2ccc(Nc3ncc4ccn(Cc5cc(F)cc(F)c5)c4n3)cc2)CC1               86
5  c1ccc(Cn2ccc3cnc(Nc4ccc(N5CCOCC5)cc4)nc32)cc1               34
6  Fc1ccccc1Cn1ccc2cnc(Nc3ccc(N4CCOCC4)cc3)nc21               32
7  NC(=O)c1cnc(Nc2ccc(N3CCOCC3)cc2)nc1NCc1c(F)ccc(F)c1F               31
8  Fc1cccc(Cn2ccc3cnc(Nc4ccc(N5CCOCC5)cc4)nc32)c1               56
9  CNC(=O)CN1CCN(c2ccc(Nc3ncc4ccn(Cc5cc(F)cc(F)c5)c4n3)cc2)CC1               77
